molecular target: Growth factor receptor-bound protein 2 (Homo sapiens) (UniProt P62993); test: Antagonistic activity at 100 uM concentration against SH-2 domain of growth factor receptor binding protein (Grb2).
Sequence (P62993 whole entry, looked up): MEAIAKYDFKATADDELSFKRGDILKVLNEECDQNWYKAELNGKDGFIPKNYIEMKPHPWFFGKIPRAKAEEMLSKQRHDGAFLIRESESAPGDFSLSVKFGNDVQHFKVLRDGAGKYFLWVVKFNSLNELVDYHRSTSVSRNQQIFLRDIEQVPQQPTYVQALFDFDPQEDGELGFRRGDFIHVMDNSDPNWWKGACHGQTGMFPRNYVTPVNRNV
Where a SMILES comes first, the peptide text is derived from it. [ ]: non-standard residue; d: D form. The star is where a group is joined. Gly(N-Bn(4-CH2PO3H2)) = O=C(O)CNCc1ccc(CP(=O)(O)O)cc1; N(3-phenylpropyl)Gly = O=C(O)CNCCCc1ccccc1; Hexanoyl = CCCCCC(=O)*; Nleu = CC(C)CNCC(=O)O; NEtG = CCNCC(=O)O
measurement-name: inhibition (%)
Give bare numbers, in %.

Some compounds with known inhibition results, for comparison:
{"compound": "CCCCCC(=O)N(CC(=O)N(CC)CC(=O)N(CCCc1ccccc1)CC(=O)N(CCCc1ccccc1)CC(N)=O)Cc1ccc(CP(=O)(O)O)cc1 (Hexanoyl-[Gly(N-Bn(4-CH2PO3H2))][NEtG][N(3-phenylpropyl)Gly][N(3-phenylpropyl)Gly]-NH2)", "tested-system": "Growth factor receptor-bound protein 2 (Homo sapiens) (UniProt P62993)", "inhibition, %": 2}
{"compound": "CCCCCC(=O)N(CC(=O)N(CC)CC(=O)N(CC(=O)N(CC)CC(N)=O)CC(C)C)Cc1ccc(CP(=O)(O)O)cc1 (Hexanoyl-[Gly(N-Bn(4-CH2PO3H2))][NEtG][Nleu][NEtG]-NH2)", "tested-system": "Growth factor receptor-bound protein 2 (Homo sapiens) (UniProt P62993)", "inhibition, %": 2}
{"compound": "CCCCCC(=O)N(CC(=O)N(CC)CC(=O)N(CC)CC(=O)N(CC)CC(N)=O)Cc1ccc(CP(=O)(O)O)cc1 (Hexanoyl-[Gly(N-Bn(4-CH2PO3H2))][NEtG][NEtG][NEtG]-NH2)", "tested-system": "Growth factor receptor-bound protein 2 (Homo sapiens) (UniProt P62993)", "inhibition, %": 6}
{"compound": "CCCCCC(=O)N(CC(=O)N(CC(=O)N(CC)CC(=O)N(CC)CC(N)=O)CC(C)C)Cc1ccc(CP(=O)(O)O)cc1 (Hexanoyl-[Gly(N-Bn(4-CH2PO3H2))][Nleu][NEtG][NEtG]-NH2)", "tested-system": "Growth factor receptor-bound protein 2 (Homo sapiens) (UniProt P62993)", "inhibition, %": 15}
{"compound": "CCCCCC(=O)N(CC(=O)N(CC(=O)N(CCCc1ccccc1)CC(=O)N(CC(N)=O)CC(C)C)CC(C)C)Cc1ccc(CP(=O)(O)O)cc1 (Hexanoyl-[Gly(N-Bn(4-CH2PO3H2))][Nleu][N(3-phenylpropyl)Gly][Nleu]-NH2)", "tested-system": "Growth factor receptor-bound protein 2 (Homo sapiens) (UniProt P62993)", "inhibition, %": 3}

Items follow; give inhibition for each.
1. CCCCCC(=O)N(CC(=O)N(CC(=O)N(CCCc1ccccc1)CC(=O)N(CCCc1ccccc1)CC(N)=O)CC(C)C)Cc1ccc(CP(=O)(O)O)cc1 (Hexanoyl-[Gly(N-Bn(4-CH2PO3H2))][Nleu][N(3-phenylpropyl)Gly][N(3-phenylpropyl)Gly]-NH2)
2. CCCCCC(=O)N(CC(=O)N(CC)CC(=O)N(CC(=O)N(CCCc1ccccc1)CC(N)=O)CC(C)C)Cc1ccc(CP(=O)(O)O)cc1 (Hexanoyl-[Gly(N-Bn(4-CH2PO3H2))][NEtG][Nleu][N(3-phenylpropyl)Gly]-NH2)
3. CCCCCC(=O)N(CC(=O)N(CC)CC(=O)N(CC)CC(=O)N(CC(N)=O)CC(C)C)Cc1ccc(CP(=O)(O)O)cc1 (Hexanoyl-[Gly(N-Bn(4-CH2PO3H2))][NEtG][NEtG][Nleu]-NH2)
4. CCCCCC(=O)N(CC(=O)N(CCCc1ccccc1)CC(=O)N(CC)CC(=O)N(CC(N)=O)CC(C)C)Cc1ccc(CP(=O)(O)O)cc1 (Hexanoyl-[Gly(N-Bn(4-CH2PO3H2))][N(3-phenylpropyl)Gly][NEtG][Nleu]-NH2)
5. CCCCCC(=O)N(CC(=O)N(CCCc1ccccc1)CC(=O)N(CC)CC(=O)N(CC)CC(N)=O)Cc1ccc(CP(=O)(O)O)cc1 (Hexanoyl-[Gly(N-Bn(4-CH2PO3H2))][N(3-phenylpropyl)Gly][NEtG][NEtG]-NH2)
6. CCCCCC(=O)N(CC(=O)N(CCCc1ccccc1)CC(=O)N(CC(=O)N(CCCc1ccccc1)CC(N)=O)CC(C)C)Cc1ccc(CP(=O)(O)O)cc1 (Hexanoyl-[Gly(N-Bn(4-CH2PO3H2))][N(3-phenylpropyl)Gly][Nleu][N(3-phenylpropyl)Gly]-NH2)
7. CCCCCC(=O)N(CC(=O)N(CCCc1ccccc1)CC(=O)N(CCCc1ccccc1)CC(=O)N(CC(N)=O)CC(C)C)Cc1ccc(CP(=O)(O)O)cc1 (Hexanoyl-[Gly(N-Bn(4-CH2PO3H2))][N(3-phenylpropyl)Gly][N(3-phenylpropyl)Gly][Nleu]-NH2)
8. CCCCCC(=O)N(CC(=O)N(CC(=O)N(CC(=O)N(CCCc1ccccc1)CC(N)=O)CC(C)C)CC(C)C)Cc1ccc(CP(=O)(O)O)cc1 (Hexanoyl-[Gly(N-Bn(4-CH2PO3H2))][Nleu][Nleu][N(3-phenylpropyl)Gly]-NH2)

1. 0
2. 2
3. 2
4. 3
5. 5
6. 32
7. 3
8. 5

Items follow; give inhibition for each.
1. CCCCCC(=O)N(CC(=O)N(CC)CC(=O)N(CC(=O)N(CC(N)=O)CC(C)C)CC(C)C)Cc1ccc(CP(=O)(O)O)cc1 (Hexanoyl-[Gly(N-Bn(4-CH2PO3H2))][NEtG][Nleu][Nleu]-NH2)
2. CCCCCC(=O)N(CC(=O)N(CCCc1ccccc1)CC(=O)N(CCCc1ccccc1)CC(=O)N(CC)CC(N)=O)Cc1ccc(CP(=O)(O)O)cc1 (Hexanoyl-[Gly(N-Bn(4-CH2PO3H2))][N(3-phenylpropyl)Gly][N(3-phenylpropyl)Gly][NEtG]-NH2)
3. CCCCCC(=O)N(CC(=O)N(CCCc1ccccc1)CC(=O)N(CC)CC(=O)N(CCCc1ccccc1)CC(N)=O)Cc1ccc(CP(=O)(O)O)cc1 (Hexanoyl-[Gly(N-Bn(4-CH2PO3H2))][N(3-phenylpropyl)Gly][NEtG][N(3-phenylpropyl)Gly]-NH2)
4. CCCCCC(=O)N(CC(=O)N(CC)CC(=O)N(CCCc1ccccc1)CC(=O)N(CC)CC(N)=O)Cc1ccc(CP(=O)(O)O)cc1 (Hexanoyl-[Gly(N-Bn(4-CH2PO3H2))][NEtG][N(3-phenylpropyl)Gly][NEtG]-NH2)

8
4
20
8
